Molecular target: CDK2/Cyclin A complex (Homo sapiens, UniProt P24941)
Test: CDK2/Cyclin A assay
Assay type: biochemical
Details: 1.0 μM; combinatorial library compounds
Procedure: CDK2/Cyclin A Construct for Assay: CDK2 was purified using published methodology (Rosenblatt et al., J. Mol. Biol., 230, 1317-1319 (1993)) from insect cells that had been infected with a baculovirus expression vector. […] Cyclin-dependent kinase activity was measured by quantifying the enzyme-catalyzed, time-dependent incorporation of radioactive phosphate from [^32P]ATP into a recombinant fragment of the retinoblastoma protein. […]
QUANTITY_MEASURED: inhibition at 1 µM (%)

CC(C)c1ccc(Nc2nc(N)c(-c3nc(-c4ccccc4)cs3)s2)cc1 [drawing 484] ... 23.3
Nc1nc(Nc2ccc(S(N)(=O)=O)cc2)sc1-c1nc(-c2ccc(CC(=O)O)s2)cs1 ... 51.6
COc1ccc(-c2csc(-c3sc(Nc4ccc(C(C)C)cc4)nc3N)n2)cc1 [drawing 462] ... 27.8
Cc1onc(-c2ccccc2)c1-c1csc(-c2sc(Nc3ccc(C(C)C)cc3)nc2N)n1 ... 11.1
CC(C)c1ccc(Nc2nc(N)c(-c3nc(-c4c(Cl)cc(C(F)(F)F)cc4Cl)cs3)s2)cc1 ... 26

(A) CC(C)c1ccc(Nc2nc(N)c(-c3nc(-c4ccc(CC(=O)O)s4)cs3)s2)cc1
(B) CC(C)c1ccc(Nc2nc(N)c(-c3nc(-c4ccc5oc6ccccc6c5c4)cs3)s2)cc1
(C) Cc1cc(-c2csc(-c3sc(Nc4ccc(N(C)C)cc4)nc3N)n2)ccc1Cl
(D) CN(C)c1ccc(Nc2nc(N)c(-c3nc(-c4ccc[nH]4)cs3)s2)cc1
(E) CC(C)c1ccc(Nc2nc(N)c(-c3nc(-c4ccccc4OC(=O)c4ccccc4)cs3)s2)cc1
Problem: Order each entry by recorded inhibition at 1 µM, climbing from the minimum. Please express your ranking as an ordered list of the labels.
Result: B, E, C, A, D
(B: -4.3%, E: 4.8%, C: 11.7%, A: 21.8%, D: 31.7%)

(a) COc1ccc(OC)c(-c2csc(-c3sc(Nc4ccc(N(C)C)cc4)nc3N)n2)c1
(b) CC(C)c1ccc(Nc2nc(N)c(-c3nc(-c4ccc(C(F)(F)F)cc4)cs3)s2)cc1
(c) CC(C)c1ccc(Nc2nc(N)c(-c3nc(-c4ccc(O)c(O)c4)cs3)s2)cc1
(d) CCN(CC)c1ccc(-c2csc(-c3sc(Nc4ccc(S(N)(=O)=O)cc4)nc3N)n2)cc1
(e) Cc1c(C)c(C)c(-c2csc(-c3sc(Nc4ccc(S(N)(=O)=O)cc4)nc3N)n2)c(C)c1C
Problem: Thanks in advance: please rank these 5 entries by inhibition at 1 µM, highest to lowest. Please express your ranking as an ordered list of the labels.
Result: e, d, c, a, b
(e: 77.2%, d: 34.8%, c: 23.8%, a: 15.6%, b: 8.7%)

(a) Nc1nc(Nc2ccc(S(N)(=O)=O)cc2)sc1-c1nc(-c2ccc(Cl)c([N+](=O)[O-])c2)cs1
(b) CC(=O)Oc1ccccc1-c1csc(-c2sc(Nc3ccc(N(C)C)cc3)nc2N)n1
(c) CC(C)c1ccc(Nc2nc(N)c(-c3nc(-c4cc(C(=O)C(Cl)(Cl)Cl)n(C)c4)cs3)s2)cc1
Problem: Order each entry by recorded inhibition at 1 µM, climbing from the minimum. Please express your ranking as an ordered list of the labels.
Result: c, a, b

(a) CN(C)c1ccc(Nc2nc(N)c(-c3nc(-c4cc(C(C)(C)C)c(O)c(C(C)(C)C)c4)cs3)s2)cc1
(b) CC(C)c1ccc(Nc2nc(N)c(-c3nc(-c4ccc(F)cc4F)cs3)s2)cc1
Problem: Lab note: record which item had the higher inhibition at 1 µM, a or b . Give the chosen item's label as your response.
Result: b

(1) N#Cc1ccc(-c2nc(-c3sc(Nc4ccc(S(N)(=O)=O)cc4)nc3N)cs2)cc1
(2) Cc1cc(-c2csc(-c3sc(Nc4ccc(N(C)C)cc4)nc3N)n2)c(C)s1
(3) Nc1nc(Nc2ccc(S(N)(=O)=O)cc2)sc1-c1nc(-c2cccc(OC(=O)c3ccccc3)c2)cs1
Problem: Order each entry by recorded inhibition at 1 µM, climbing from the minimum. Please express your ranking as an ordered list of the labels.
Result: 1, 2, 3

(I) Cc1cc(-c2csc(-c3sc(Nc4ccc(C(C)C)cc4)nc3N)n2)cc(C)c1O
(II) COc1ccc2nc(-c3ccccc3)c(-c3csc(-c4sc(Nc5ccc(N(C)C)cc5)nc4N)n3)cc2c1
(III) Cc1cc(-c2csc(-c3sc(Nc4ccc(S(N)(=O)=O)cc4)nc3N)n2)cs1
(IV) CN(C)c1ccc(Nc2nc(N)c(-c3nc(-c4ccc(Cl)c(Cl)c4)cs3)s2)cc1
Problem: Thanks in advance: please rank these 4 entries by inhibition at 1 µM, highest to lowest. Please express your ranking as an ordered list of the labels.
Result: III, II, I, IV
(III: 68.2%, II: 24.6%, I: 14.1%, IV: 9.2%)

(a) CC(C)c1ccc(Nc2nc(N)c(-c3nc(-c4cc(-c5ccc(Cl)c(Cl)c5)no4)cs3)s2)cc1
(b) Nc1nc(Nc2ccc(S(N)(=O)=O)cc2)sc1-c1nc(-c2ccc(-c3ccccc3)cc2)cs1 [drawing 404]
Problem: Lab note: record which item had the higher inhibition at 1 µM, a or b . Give the chosen item's label as your response.
Result: a
(a: 18.5%, b: 11.2%)

(a) CC(C)c1ccc(Nc2nc(N)c(-c3nc(-c4cccc([N+](=O)[O-])c4)cs3)s2)cc1
(b) CC(C)c1ccc(Nc2nc(N)c(-c3nc(-c4ccc(Cl)c([N+](=O)[O-])c4)cs3)s2)cc1
Problem: Which of these two has the smaller recorded inhibition at 1 µM: a or b ? Give the chosen item's label as your response.
Result: b
